biological target: glutathione S-transferase (GST)-linked full-length human Syk protein (Homo sapiens, UniProt P43405)
pIC50: −log10 of the molar value.
Observable: pIC50

{"columns": ["Molecule", "pIC50"],
 "data": [
  ["CCCC[C@@H](Nc1nc(Nc2cnc(N3CCOCC3)c(F)c2)c(C(N)=O)cc1F)[C@H](C)N [Example 2-262]", "7.30 to 8.00"],
  ["CC[C@@H](Nc1nc(Nc2ccc3c(c2)c(N2CCCC2)nn3C)c(C(N)=O)cc1F)[C@H](C)N [Example 2-429]", "> 8.00"],
  ["COCCn1nc(N(C)C)c2cc(Nc3nc(N[C@@H]4CCOC[C@@H]4N)c(F)cc3C(N)=O)ccc21 [Example 2-501]", "7.30 to 8.00"],
  ["COCCn1ncc2c(Nc3nc(N[C@H](C4CC4)[C@H](C)N)c(F)cc3C(N)=O)cncc21 [Example 2-388]", "> 8.00"],
  ["CC(C)[C@@H](Nc1nc(Nc2ccc3c(cnn3C)c2)c(C(N)=O)cc1F)[C@H](C)N [Example 2-104]", "7.00 to 7.30"]
]}

Consider the additional molecule presented here.
Task: Look at this molecule and give its reported pIC50. COCCn1nc(OC(F)F)c2cc(Nc3nc(N[C@H](C4CCC4)[C@H](C)N)c(F)cc3C(N)=O)ccc21 [Example 2-543]
Result: > 8.00

---

Target or system glutathione S-transferase (GST)-linked full-length human Syk protein (Homo sapiens): recorded pIC50 listed per item.
pIC50: −log10 of the molar value.

// worked examples, pIC50 included
{"columns": ["Cpd smiles", "pIC50"],
 "data": [
  ["CCC[C@@H](Nc1nc(Nc2ccc3c(c2)c(N(C)C)nn3C)c(C(N)=O)cc1F)[C@H](C)N", "> 8.00"],
  ["CC[C@H](N)[C@H](Nc1nc(Nc2cccnc2)c(C(N)=O)cc1F)C1CC1", "7.30 to 8.00"],
  ["COC[C@@H](Nc1nc(Nc2ccc3c(c2)c(OC(F)F)nn3C)c(C(N)=O)cc1F)[C@H](C)N", "> 8.00"]
]}

Task: For glutathione S-transferase (GST)-linked full-length human Syk protein (Homo sapiens), provide pIC50 of C[C@H](N)[C@@H](CC1CC1)Nc1nc(Nc2cc(F)c3c(c2)c(N(C)C)nn3C)c(C(N)=O)cc1F please.
Result: 7.30 to 8.00

Task: State its pIC50 on glutathione S-transferase (GST)-linked full-length human Syk protein (Homo sapiens): CC[C@H](N)[C@@H](CC)Nc1nc(Nc2ccc3c(c2)c(OC)nn3C)c(C(N)=O)cc1F
Result: 7.30 to 8.00

---

# UniProt:P43405: IC50 values follow

Answered cases to consult:
{"columns": ["Cpd smiles", "IC50"],
 "data": [
  ["CCOc1ncc(Nc2nc(N[C@H](C3CC3)[C@H](C)N)c(F)cc2C(N)=O)cc1-n1cccn1", "10 to 50 nM"],
  ["CC[C@H](N)[C@@H](C)Nc1nc(Nc2cnc(C)c(C)c2)c(C(N)=O)cc1F", "10 to 50 nM"],
  ["CCC[C@@H](Nc1nc(Nc2ccc3c(c2)c(OC(F)F)nn3C)c(C(N)=O)cc1F)[C@H](C)N", "< 10 nM"]
]}

Then this compound:
Task: # get_value(readout= IC50, system= UniProt:P43405) for C[C@H](N)[C@H](Nc1nc(Nc2cnc(N3CCOCC3)nc2)c(C(N)=O)cc1F)C1CC1
Result: 50 to 100 nM
